- System Name: IT1-Fc-E10 scFv-Fc-scFv bispecific molecule (human)
- Procedure Text: SPR
Reported Property: Kd (nM)
Respond numerically; units are nM and should not be typed.

Form: binder = human CXCL13 (natural protein) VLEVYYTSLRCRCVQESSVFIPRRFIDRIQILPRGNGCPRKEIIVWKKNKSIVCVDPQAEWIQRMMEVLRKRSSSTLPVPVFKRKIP ; Kd = 0.067
